Experimental Target: hERG (KCNH2) (Homo sapiens, UniProt Q12809)
Sequence (Q12809 whole entry): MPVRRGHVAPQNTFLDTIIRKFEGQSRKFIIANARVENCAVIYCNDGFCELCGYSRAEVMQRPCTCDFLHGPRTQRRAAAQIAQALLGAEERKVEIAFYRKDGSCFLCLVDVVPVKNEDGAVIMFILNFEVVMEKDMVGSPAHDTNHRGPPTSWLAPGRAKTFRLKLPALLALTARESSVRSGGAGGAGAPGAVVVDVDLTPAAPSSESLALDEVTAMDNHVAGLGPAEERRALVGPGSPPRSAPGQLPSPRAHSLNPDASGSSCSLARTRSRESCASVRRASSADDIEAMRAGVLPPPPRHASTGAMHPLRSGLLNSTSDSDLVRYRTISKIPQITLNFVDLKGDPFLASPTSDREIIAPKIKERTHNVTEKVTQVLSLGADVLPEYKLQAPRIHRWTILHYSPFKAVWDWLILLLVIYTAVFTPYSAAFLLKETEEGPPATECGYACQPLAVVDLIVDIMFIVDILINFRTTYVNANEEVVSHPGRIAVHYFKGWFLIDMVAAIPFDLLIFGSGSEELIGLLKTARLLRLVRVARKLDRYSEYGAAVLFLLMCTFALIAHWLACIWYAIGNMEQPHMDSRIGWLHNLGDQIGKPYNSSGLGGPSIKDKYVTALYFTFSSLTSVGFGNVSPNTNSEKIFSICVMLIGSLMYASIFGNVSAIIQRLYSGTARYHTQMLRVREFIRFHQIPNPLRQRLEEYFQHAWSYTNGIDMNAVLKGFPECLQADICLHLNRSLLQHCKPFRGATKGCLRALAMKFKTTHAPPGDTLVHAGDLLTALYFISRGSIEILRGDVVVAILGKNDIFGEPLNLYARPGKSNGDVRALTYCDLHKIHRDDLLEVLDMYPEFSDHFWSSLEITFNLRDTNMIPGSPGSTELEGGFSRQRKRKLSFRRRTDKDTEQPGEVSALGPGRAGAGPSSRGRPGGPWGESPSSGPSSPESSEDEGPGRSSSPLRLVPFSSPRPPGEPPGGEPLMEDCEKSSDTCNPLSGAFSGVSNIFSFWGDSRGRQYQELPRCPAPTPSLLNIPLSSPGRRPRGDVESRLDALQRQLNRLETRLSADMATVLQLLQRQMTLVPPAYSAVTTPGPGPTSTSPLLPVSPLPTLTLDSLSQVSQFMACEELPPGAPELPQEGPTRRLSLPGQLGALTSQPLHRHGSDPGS
Measurement Protocol: Inhibition of hERG expressed in HEK293 cells at 10 uM relative to control
Assay type: toxicity, cell-based
Experimental Parameters: HEK293 cells that express hERG
Quantity Name: inhibition at 10 µM (%)

> print(dat)
                              smiles.string        quantity.name  obs.value
1  CCCCCCCCC(=O)c1cccc2oc(-c3cc(OC)ccc3OC(=O)N3CCCC3)cc12  inhibition at 10 µM       14.6

* * *

Measurement Protocol: Irreversible inhibition of human CES2A using fluorescein diacetate as substrate preincubated for 3 mins followed by substrate addition by fluorescence microplate reader
pIC50: −log10 of the molar value.
Quantity Name: pIC50

> print(dat)
                              smiles.string  obs.value
1  CCCCCCCCC(=O)c1cccc2oc(-c3cc(OC)ccc3OC(=O)N3CCCC3)cc12       9.92
